- SYSTEM: KRAS G12S (Homo sapiens, UniProt P01116+P62937, G12S)
- Sequence (P01116 1-169 isoform P01116-2 G12S limits assumed): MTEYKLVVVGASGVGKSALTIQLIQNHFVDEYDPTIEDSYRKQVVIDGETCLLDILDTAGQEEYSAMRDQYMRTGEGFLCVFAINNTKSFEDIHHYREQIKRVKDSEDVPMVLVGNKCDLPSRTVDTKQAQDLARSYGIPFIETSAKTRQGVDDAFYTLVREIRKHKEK
- Sequence (P62937 whole entry): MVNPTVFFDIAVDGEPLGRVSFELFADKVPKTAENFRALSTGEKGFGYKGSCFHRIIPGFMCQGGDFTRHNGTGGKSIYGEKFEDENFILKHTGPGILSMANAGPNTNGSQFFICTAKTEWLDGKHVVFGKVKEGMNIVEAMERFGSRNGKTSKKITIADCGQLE
- TEST_NAME: Ras-Raf disruption / FRET / MOA assay (BRAF RBD)
- Format: biochemical
- STATED_CONDITIONS: KRAS G12S FRET data IC50, Ras-Raf disruption, with Cyclophilin A
pIC50: −log10 of the molar value.
Please go through the items and note down their pIC50.

Look up pIC50: CCn1c(-c2cccnc2[C@H](C)OC)c2c3cc(ccc31)-c1cc(O)cc(c1)C[C@H](NC(=O)[C@H](C1CCCC1)N(C)C(=O)[C@@H](C)N(C)C(=O)[C@@H]1N[C@@H]1C1CC1)C(=O)N1CCC[C@H](N1)C(=O)OCC(C)(C)C2 [Example 327] < 5.00

Report pIC50 for CCn1c(-c2cccnc2[C@H](C)OC)c2c3cc(ccc31)-c1csc(n1)C[C@H](NC(=O)[C@H](C1CCCC1)N(C)C(=O)CN(C)C(=O)[C@H]1CN1)C(=O)N1CCC[C@H](N1)C(=O)OCC(C)(C)C2 [Example 132] please. 5.00 to 6.00

Bench note: what pIC50 did CCn1c(-c2cccnc2[C@H](C)OC)c2c3cc(ccc31)-c1cc(O)cc(c1)C[C@H](NC(=O)[C@H](C(C)C)N(C)C(=O)CNC(=O)[C@H]1CN1)C(=O)N1CCC[C@H](N1)C(=O)OCC(C)(C)C2 [Example 140] show? 7.00 to 8.00

// lookup pIC50 for CCn1c(-c2cccnc2[C@H](C)OC)c2c3cc(ccc31)-c1cc(O)cc(c1)C[C@H](NC(=O)[C@H](C(C)C)N(C)C(=O)C13CCC(CC1)N3C(=O)[C@H]1CN1)C(=O)N1CCC[C@H](N1)C(=O)OCC(C)(C)C2 [Example 202] 6.00 to 7.00
